Cited source: ChEMBL document CHEMBL1961873

study-target: Proto-oncogene tyrosine-protein kinase receptor Ret (Homo sapiens);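 note: each listed value is an averaged inhibition figure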
measurement-conditions: at 1 µM
Can you tell me inhibition for the items I'm about to list?
Form entry: enter the amount, then its unit.

// worked examples, inhibition included
{"record-smiles": "[O-][S+]1CCN(Cc2ccc(-c3ccc4ncnc(Nc5ccc(OCc6ccccc6)c(Cl)c5)c4c3)o2)CC1", "study-target": "Proto-oncogene tyrosine-protein kinase receptor Ret (Homo sapiens)", "inhibition": "3.49%"}
{"record-smiles": "C[C@@H](Oc1cc(-n2cnc3ccc(OCC4CCN(C)CC4)cc32)sc1C(N)=O)c1ccccc1C(F)(F)F", "study-target": "Proto-oncogene tyrosine-protein kinase receptor Ret (Homo sapiens)", "inhibition": "11.6%"}
{"record-smiles": "CN(C)CCCn1c(-c2nonc2N)nc2cnccc21", "study-target": "Proto-oncogene tyrosine-protein kinase receptor Ret (Homo sapiens)", "inhibition": "8.04%"}
{"record-smiles": "ON=C1CCc2cc(-c3nc(C4CCNCC4)[nH]c3-c3ccncc3)ccc21", "study-target": "Proto-oncogene tyrosine-protein kinase receptor Ret (Homo sapiens)", "inhibition": "7.25%"}
{"record-smiles": "COc1cccc(-n2ncc3c(N/N=C/c4ccc(C)cc4)ncnc32)c1", "study-target": "Proto-oncogene tyrosine-protein kinase receptor Ret (Homo sapiens)", "inhibition": "11.5%"}
{"record-smiles": "Nc1nccc(C#Cc2cncnc2Nc2ccc(OCc3cccc(F)c3)c(Cl)c2)n1", "study-target": "Proto-oncogene tyrosine-protein kinase receptor Ret (Homo sapiens)", "inhibition": "5.76%"}
{"record-smiles": "CN(c1ccc(NC(=O)Nc2ccc(OC(F)(F)F)cc2)cc1)c1ccnc(Nc2cccc(S(N)(=O)=O)c2)n1", "study-target": "Proto-oncogene tyrosine-protein kinase receptor Ret (Homo sapiens)", "inhibition": "72%"}
{"record-smiles": "NS(=O)(=O)c1ccc(Nc2cc(-c3cccc(O)c3)n[nH]2)cc1", "study-target": "Proto-oncogene tyrosine-protein kinase receptor Ret (Homo sapiens)", "inhibition": "15.5%"}

So for NS(=O)(=O)c1ccc(NC=C2C(=O)Nc3ccc4ncsc4c32)cc1 , the logged inhibition turned out to be 79.9%
